molecular target: T1, Homo sapiens factor Bb protein (human, UniProt P00751 260-764); experiment: SPR single cycle kinetics; ratio against VH0/Vκ0
T1 construct: Bought from CompTech (A155); also called complement factor Bb; human factor Bb
T1 sequence (P00751 260-764 limits assumed): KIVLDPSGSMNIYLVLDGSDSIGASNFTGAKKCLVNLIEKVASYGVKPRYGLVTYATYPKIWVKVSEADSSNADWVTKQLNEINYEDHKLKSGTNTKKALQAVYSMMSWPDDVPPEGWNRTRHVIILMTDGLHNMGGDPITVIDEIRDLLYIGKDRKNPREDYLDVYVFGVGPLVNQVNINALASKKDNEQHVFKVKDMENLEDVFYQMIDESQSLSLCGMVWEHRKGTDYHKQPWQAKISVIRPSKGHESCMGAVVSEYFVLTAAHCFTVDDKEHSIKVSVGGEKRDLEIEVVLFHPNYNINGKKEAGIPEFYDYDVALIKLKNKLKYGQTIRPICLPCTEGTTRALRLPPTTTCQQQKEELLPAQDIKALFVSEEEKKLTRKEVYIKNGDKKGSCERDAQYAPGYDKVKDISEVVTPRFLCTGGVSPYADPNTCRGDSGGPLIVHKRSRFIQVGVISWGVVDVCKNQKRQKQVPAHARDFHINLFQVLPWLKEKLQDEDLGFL
observed.property: Relative KD
Answer with the value's number alone.

Data request: Input VH4/Vκ7 (antibody, V domains shown, Redesigned variant; cloned into the appropriate expression vector (IgG4v1 and kappa were used in the first round)) VH: EVQLVESGGGLVKPGGSLRLSCAASGFTFSNYAMSWVRQAPGKRLEWVATISNRGSYTYYPDSVKGRFTISRDNAKNSLYLQMSSLRSEDTALYYCARERPMDYWGQGTSVTVSS VL: DIQMTQSPSTLSASVGDRVTITCKASQDVGTAVAWYQQKPGKAPKLLIYWASTRHTGVPDRFSGSGSGTDFTLTISSLQAEDFAVYFCHQHSSNPLTFGQGTKLEIK , output reported Relative KD.
Data returned: 1.32

Data request: Input VH7/Vκ0 (antibody, V domains shown, Control antibody of the redesign round; cloned into the appropriate expression vector (IgG4v1 and kappa were used in the first round), HEK EBNA supernatant) VH: EVQLVESGGGLVKPGGSLRLSCAASGFTFSNYAMSWVRQTPEKRLEWVATISNRGSYTYYPDSVKGRFTISRDNAKNSLYLQMNSLRAEDTALYYCARERPMDYWGQGTLVTVSS VL: DIVMTQSHKFMSTSVGDRVSITCKASQDVGTAVAWYQQKPGQSPKLLIYWASTRHTGVPDRFTGSGSGTDFTLTITNVQSEDLAVYFCHQHSSNPLTFGAGTKLELK , output reported Relative KD.
Data returned: 4.25

Data request: Read the entry VH6/Vκ0 (antibody, V domains shown, Control antibody of the redesign round; cloned into the appropriate expression vector (IgG4v1 and kappa were used in the first round), HEK EBNA supernatant) VH: EVQLVESGGGLVKPGGSLRLSCAASGFTFSNYAMSWVRQAPGKRLEWVATISNRGSYTYYPDSVKGRFTISRDNAKNSLYLQMNSLRAEDTALYYCARERPMDYWGQGTLVTVSS VL: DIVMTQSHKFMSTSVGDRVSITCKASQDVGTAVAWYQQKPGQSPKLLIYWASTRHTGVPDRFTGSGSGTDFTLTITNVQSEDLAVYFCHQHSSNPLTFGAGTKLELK and write its reported Relative KD.
Data returned: 1.86
